Where these numbers come from: a melting point compilation (Tetko et al.; mined from patent text by program, amines drawn as free bases though some values may be those of a salt)

# maps each entry to its melting point
OBSERVED PROPERTY: melting point

- COMPOUND: "Nc1c(Cl)cc2nc(O)c(O)nc2c1N"
  OBSERVED PROPERTY: "melting point"
  EXPERIMENTAL RESULT: "> 300 °C"
- COMPOUND: "Cn1ncc(-c2ccc(OCCCCl)cc2)cc1=O"
  OBSERVED PROPERTY: "melting point"
  EXPERIMENTAL RESULT: "90 to 91 °C"
- COMPOUND: "O=C(Cc1ccc(Cl)c(Cl)c1)N1CCCC2CCCC(N3CCCC3)C21 (stereo not drawn)"
  OBSERVED PROPERTY: "melting point"
  EXPERIMENTAL RESULT: "82 to 84 °C"

---

# maps each entry to its melting point
OBSERVED PROPERTY: melting point

- MOLECULAR STRING: "CN(CC(=O)c1cccn1Cc1ccccc1[N+](=O)[O-])Cc1ccccc1"
  OBSERVED PROPERTY: "melting point"
  EXPERIMENTAL RESULT: "103 to 105 °C"
- MOLECULAR STRING: "Clc1ccc2c(ccn2C2=CCN(CCC3Cc4ccccc4C3)CC2)c1"
  OBSERVED PROPERTY: "melting point"
  EXPERIMENTAL RESULT: "93 to 94 °C"
- MOLECULAR STRING: "COc1cc(C(=O)NS(=O)(=O)c2ccccc2C)ccc1Cn1cc(/C=C/C(=O)N(C)C)c2ccc(/C=C/C(=O)N(C)C)cc21"
  OBSERVED PROPERTY: "melting point"
  EXPERIMENTAL RESULT: "271 to 273 °C"

---

# maps each entry to its melting point

- COMPOUND: "COc1cc(NC(C)=O)cc(OC)c1-c1ccc(C[C@H](NC(=O)c2c(Cl)cccc2Cl)C(=O)O)cc1"
  melting point: "243 to 244 °C"
- COMPOUND: "Cc1cc(O)nc2c1CCCC2"
  melting point: "250 to 252 °C"
- COMPOUND: "NC(=O)Cn1ccc(-c2ccc(Oc3ccc(F)cc3)cc2)n1"
  melting point: "145 °C"
- COMPOUND: "Cc1cn(-c2cc(C)c(N)c(C#N)c2)c(C)n1"
  melting point: "214 to 217 °C"
- COMPOUND: "Cc1ccc(S(=O)(=O)N(CCCl)N(S(C)(=O)=O)S(C)(=O)=O)cc1"
  melting point: "99 to 101 °C"
- COMPOUND: "CCOCc1ncccc1CN(CCn1ccc2oc(C)cc2c1=O)Cc1ccc2c(c1)N(C)C(=O)C(C)(C)C(=O)N2CC"
  melting point: "104 to 106 °C"
- COMPOUND: "O=C1NC(=O)C(Nc2ccc(CCNC[C@H](O)COc3ccc(Oc4ccccc4)cc3)cc2)S1 (some centres not stated)"
  melting point: "72 to 74 °C"
- COMPOUND: "C=C(C)C(=O)NCc1ccc(S(=O)(=O)ON=C2c3ccccc3-c3ccccc32)cc1"
  melting point: "187 to 188 °C"
- COMPOUND: "C[C@H]1CCCC(C)(C)[C@@H]1[C@H](O)c1ccc(C#N)c(Cl)c1"
  melting point: "116 to 118 °C"
- COMPOUND: "COc1ccc(-c2coc3cc(OCc4ccccc4)ccc3c2=O)cc1"
  melting point: "181 to 183 °C"
- COMPOUND: "O=C(Cc1cccs1)NCCCSc1ccncc1"
  melting point: "62 to 63 °C"
- COMPOUND: "COC(=O)c1nsc(S)n1"
  melting point: "126 to 127 °C"
- COMPOUND: "O=C(O)CCCCCn1c(=O)c2ccccc2n(CCCCN2CCC(OC(c3ccccc3)c3ccccc3)CC2)c1=O"
  melting point: "155 to 157 °C"
- COMPOUND: "Nc1nc2nc(NCCCN3CCOCC3)ncc2cc1-c1c(Cl)cccc1Cl"
  melting point: "224 to 230 °C"
- COMPOUND: "CC(C)(C)C(NC(=O)Cc1ccc2ncccc2c1)NC(=NC#N)Nc1cccc2ncccc12 (configuration not stated)"
  melting point: "150 to 151 °C"
- COMPOUND: "COc1ccc(Cc2cc(C3CCCN(C(=O)c4ccc5c(c4)OCO5)C3)nc(N)n2)cc1 (configuration not stated)"
  melting point: "125 to 127 °C"
- COMPOUND: "NC(=S)Nc1ccccc1-c1ccccc1"
  melting point: "183 to 184 °C"

---

OBSERVED PROPERTY: melting point

- MOLECULAR STRING: "COc1ccc2nc3snc(C(=O)c4ncc(C)c(OC)c4C)n3c2c1"
  OBSERVED PROPERTY: "melting point"
  EXPERIMENTAL RESULT: "196 to 197 °C"
- MOLECULAR STRING: "O=Cc1cccc(OCc2ccco2)c1"
  OBSERVED PROPERTY: "melting point"
  EXPERIMENTAL RESULT: "144 to 146 °C"
- MOLECULAR STRING: "O=P(NP(=S)(Oc1ccccc1)Oc1ccccc1)(Oc1ccccc1)Oc1ccccc1"
  OBSERVED PROPERTY: "melting point"
  EXPERIMENTAL RESULT: "103 to 105 °C"
- MOLECULAR STRING: "CN(C)CCCNc1ccc(NCCCN(C)C)c2c1C(=O)c1c(O)ccc(O)c1C2=O"
  OBSERVED PROPERTY: "melting point"
  EXPERIMENTAL RESULT: "154 to 157 °C"
- MOLECULAR STRING: "CNC(=O)Nc1ccc(O)cc1"
  OBSERVED PROPERTY: "melting point"
  EXPERIMENTAL RESULT: "169 to 171 °C"
- MOLECULAR STRING: "O=C(O)c1cccc(-c2ccc3c(c2)N(Cc2ccc(Cl)c(Cl)c2)CC3)c1"
  OBSERVED PROPERTY: "melting point"
  EXPERIMENTAL RESULT: "167 to 168 °C"
- MOLECULAR STRING: "CC1(C)CCc2c(N3CCOCC3)nc3sc4c(NCCCN5CCCC5=O)ncnc4c3c21"
  OBSERVED PROPERTY: "melting point"
  EXPERIMENTAL RESULT: "142 to 143 °C"

---

# maps each entry to its melting point

- COMPOUND: "CN1C(=O)N2CCOC2(c2ccccc2)c2cc([N+](=O)[O-])ccc21 (configuration not stated)"
  melting point [°C]: 136
- COMPOUND: "CCCCC(=O)Nc1cccc(NC(=O)C=C(C)OC)c1"
  melting point [°C]: 115
- COMPOUND: "CCOC(=O)C(=O)Nc1cccc(NC(=O)C(=O)OCC)c1Cl"
  melting point [°C]: 162

---

# maps each entry to its melting point
OBSERVED PROPERTY: melting point

- COMPOUND: "CC(=O)Nc1cc2c(cc1[N+](=O)[O-])OC(C)O2 (stereo not drawn)"
  EXPERIMENTAL RESULT: "112 to 113 °C"
- COMPOUND: "CCCCn1c(=O)c2c(ncn2CCCCC(C)=O)n(CCCC)c1=O"
  EXPERIMENTAL RESULT: "88 °C"
- COMPOUND: "O=C1CSCC2=C1C(c1ccc(F)c(Br)c1)n1nccc1N2 (stereo not drawn)"
  EXPERIMENTAL RESULT: "160 to 163 °C"

---

# maps each entry to its melting point
OBSERVED PROPERTY: melting point

- COMPOUND: "Cc1nc(CCOc2ccc(CC3SC(=N)NC3=O)cc2)oc1-c1ccccc1 (centres undefined)"
  OBSERVED PROPERTY: "melting point"
  EXPERIMENTAL RESULT: "194 to 195 °C"
- COMPOUND: "O=C1NC(Cc2ccc(OCc3ccccc3)cn2)C(=O)NC1Cc1cccnc1 (centres undefined)"
  OBSERVED PROPERTY: "melting point"
  EXPERIMENTAL RESULT: "193 to 196 °C"
- COMPOUND: "CC(C)N(N=O)c1ccc(N(N=O)c2ccccc2)cc1"
  OBSERVED PROPERTY: "melting point"
  EXPERIMENTAL RESULT: "85 to 89 °C"
- COMPOUND: "CCN(CC)c1ccccc1C(=O)O"
  OBSERVED PROPERTY: "melting point"
  EXPERIMENTAL RESULT: "122 to 123 °C"
- COMPOUND: "CN(Cc1cccc2c1CN(C1CCC(=O)NC1=O)C2=O)C(=O)Nc1cc(Cl)cc(Cl)c1 (centres undefined)"
  OBSERVED PROPERTY: "melting point"
  EXPERIMENTAL RESULT: "285 to 287 °C"
- COMPOUND: "CC(C)(C)OC(=O)NCC(=O)N1CCC[C@H]1C(=O)O"
  OBSERVED PROPERTY: "melting point"
  EXPERIMENTAL RESULT: "140 to 143 °C"
- COMPOUND: "CC(=O)Nc1ccc([N+](=O)[O-])c2c(Br)ccc(C)c12"
  OBSERVED PROPERTY: "melting point"
  EXPERIMENTAL RESULT: "216 to 217 °C"
- COMPOUND: "Fc1ccccc1CSc1nc2cnccc2[nH]1"
  OBSERVED PROPERTY: "melting point"
  EXPERIMENTAL RESULT: "186 to 188 °C"
- COMPOUND: "CCOC(=O)c1sc2ccc(Cl)cc2c1C"
  OBSERVED PROPERTY: "melting point"
  EXPERIMENTAL RESULT: "92.5 to 94 °C"
